Values from patent US10519446B2

# System: HBV
# test details: Efficacy of HBV RNAi agents in HepG2.2.15 cells in vitro (sAg KD)
# Type: cell-based, Hepatitis B Virus
# experimental parameters: Experiment 1; percent residual gene activity; HepG2.2.15 cells
property name: Percent sAg remaining at maximum knockdown (%)

{"columns": ["substance", "assay result"],
 "data": [
  ["9: \"HBV RNAi agents numbered 1 to 10\"; \"The RNAi agents used are listed in Table 8E\" (18-mer format) (sense GGAGGCUGUAGGCAUAAAU; antisense AUUUAUGCCUACAGCCUCC; chemistry not given here) [Number 9]", 51.2],
  ["5: \"One sequence used was designated siHBV_1599_18mer_CAM, and corresponds to Number 5 in Table 8E\" (sense CCGUGUGCACUUCGCUUCA; antisense UGAAGCGAAGUGCACACGG; chemistry not given here)", 58.7],
  ["12: \"Twelve of the best HBV RNAi agents identified are listed below, in various formats, in Tables 8A-8E, 9 and 10\" (sense GGACUUCUCUCAAUUUUCU; antisense AGAAAAUUGAGAGAAGUCC; chemistry not given here) [Number 12]", 63.11],
  ["3: \"HBV RNAi agents numbered 1 to 10\"; \"The RNAi agents used are listed in Table 8E\" (18-mer format) (sense CCAUACUGCGGAACUCCUA; antisense UAGGAGUUCCGCAGUAUGG; chemistry not given here) [Number 3]", 50.2],
  ["6: \"HBV RNAi agents numbered 1 to 10\"; \"The RNAi agents used are listed in Table 8E\" (18-mer format) (sense GGCUGUAGGCAUAAAUUGG; antisense CCAAUUUAUGCCUACAGCC; chemistry not given here) [Number 6]", 62.7],
  ["7: \"HBV RNAi agents numbered 1 to 10\"; \"The RNAi agents used are listed in Table 8E\" (18-mer format) (sense GCUGUAGGCAUAAAUUGGU; antisense ACCAAUUUAUGCCUACAGC; chemistry not given here) [Number 7]", 58.5],
  ["4: \"HBV RNAi agents numbered 1 to 10\"; \"The RNAi agents used are listed in Table 8E\" (18-mer format) (sense GAGGCUGUAGGCAUAAAUU; antisense AAUUUAUGCCUACAGCCUC; chemistry not given here) [Number 4]", 56.7]
]}

* * *

# Tested on: HBV
# test details: Efficacy of HBV RNAi agents in HepG2.2.15 cells in vitro (sAg KD)
# Type: cell-based, Hepatitis B Virus
# experimental parameters: Experiment 2; HepG2.2.15 cells; nM printed only at the Experiment 1 and AVERAGE EC50 heads; read-out: EC50, EXPERIMENT 2

{"columns": ["substance", "tested target", "EC50 / nM"],
 "data": [
  ["7: \"HBV RNAi agents numbered 1 to 10\"; \"The RNAi agents used are listed in Table 8E\" (18-mer format) (sense GCUGUAGGCAUAAAUUGGU; antisense ACCAAUUUAUGCCUACAGC; chemistry not given here) [Number 7]", "HBV", 0.409],
  ["9: \"HBV RNAi agents numbered 1 to 10\"; \"The RNAi agents used are listed in Table 8E\" (18-mer format) (sense GGAGGCUGUAGGCAUAAAU; antisense AUUUAUGCCUACAGCCUCC; chemistry not given here) [Number 9]", "HBV", 0.67],
  ["10: \"HBV RNAi agents numbered 1 to 10\"; \"The RNAi agents used are listed in Table 8E\" (18-mer format) (sense GAGAUUAGGUUAAAGGUCU; antisense AGACCUUUAACCUAAUCUC; chemistry not given here) [Number 10]", "HBV", 0.437],
  ["3: \"HBV RNAi agents numbered 1 to 10\"; \"The RNAi agents used are listed in Table 8E\" (18-mer format) (sense CCAUACUGCGGAACUCCUA; antisense UAGGAGUUCCGCAGUAUGG; chemistry not given here) [Number 3]", "HBV", 0.016]
]}
